Each recorded value in this set is attributed to patent US10570151B2.

# IC50 listing for each entry below
test system: HEK293 cells; experiment: Anti-proliferation activity of unconjugated compounds in HEK293; type: cell-based; settings: Homo sapiens; HEK293, unconjugated (Table 2, FIG. 8); read-out: IC50 (nM) HEK293
Response body: numeric value in nM, unit text excluded.

CNCCC(=O)N(C)[C@@H](C)C(=O)O[C@H]1CC(=O)N(C)c2cc(cc(OC)c2Cl)C/C(C)=C/C=C/[C@@H](OC)[C@@]2(O)C[C@H](OC(=O)N2)[C@@H](C)[C@@H]2O[C@@]12C : 200
COc1cc2cc(c1Cl)N(C)C(=O)C[C@H](OC(=O)[C@H](C)N(C)C(=O)C1CCNCC1)[C@]1(C)O[C@H]1[C@H](C)[C@@H]1C[C@@](O)(NC(=O)O1)[C@H](OC)/C=C/C=C(\C)C2 : 50
COc1cc2cc(c1Cl)N(C)C(=O)C[C@H](OC(=O)[C@H](C)N(C)C(=O)CCSSC)[C@]1(C)O[C@H]1[C@H](C)[C@@H]1C[C@@](O)(NC(=O)O1)[C@H](OC)/C=C/C=C(\C)C2 : 0.2

// next item, IC50 requested
-- ask Consider the molecule COc1cc2cc(c1Cl)N(C)C(=O)C[C@H](OC(=O)[C@H](C)N(C)C(=O)c1ccc3c(c1)CCNC3)[C@]1(C)O[C@H]1[C@H](C)[C@@H]1C[C@@](O)(NC(=O)O1)[C@H](OC)/C=C/C=C(\C)C2 and give its measured IC50.
-- reply 20

----------
System: U251 cells
Assay: Anti-proliferation activity of unconjugated compounds in U251
Assay type: cell-based
Conditions: Homo sapiens, U-251; U251, unconjugated (Table 2, FIG. 8)
Method: Cells were seeded in PDL-coated 96 well plates at 375 (MMT/hEGFRvIII), 1500 (U251/hEGFRvIII), 2000 (HEK293/hEGFRvIII), or 3000 (C4-2, PC3/hSTEAP1, T47D, and U87-MG) cells per well in complete growth media and grown overnight. […] To measure viability in MMT/hEGFRvIII, U251/hEGFRvIII, HEK293/hEGFRvIII, C4-2, PC3/hSTEAP1, and U87-MG, cells were incubated with CCK8 (Dojindo) for the final 1-3 hours and the absorbance at 450 nm (OD450) was determined on a Flexstation3 (Molecular Devices). […]
Parameter Measured: IC50 (nM)
Response body: numeric value in nM, unit text excluded.

Consider the worked cases shown below.
COc1cc2cc(c1Cl)N(C)C(=O)C[C@H](OC(=O)[C@H](C)N(C)C(=O)C1CCNCC1)[C@]1(C)O[C@H]1[C@H](C)[C@@H]1C[C@@](O)(NC(=O)O1)[C@H](OC)/C=C/C=C(\C)C2 : 25
CNCCC(=O)N(C)[C@@H](C)C(=O)O[C@H]1CC(=O)N(C)c2cc(cc(OC)c2Cl)C/C(C)=C/C=C/[C@@H](OC)[C@@]2(O)C[C@H](OC(=O)N2)[C@@H](C)[C@@H]2O[C@@]12C : 150
COc1cc2cc(c1Cl)N(C)C(=O)C[C@H](OC(=O)[C@H](C)N(C)C(=O)CCSSC)[C@]1(C)O[C@H]1[C@H](C)[C@@H]1C[C@@](O)(NC(=O)O1)[C@H](OC)/C=C/C=C(\C)C2 : 0.4

// next item, IC50 requested
-- ask Consider the compound COc1cc2cc(c1Cl)N(C)C(=O)C[C@H](OC(=O)[C@H](C)N(C)C(=O)c1ccc3c(c1)CCNC3)[C@]1(C)O[C@H]1[C@H](C)[C@@H]1C[C@@](O)(NC(=O)O1)[C@H](OC)/C=C/C=C(\C)C2 and give its measured IC50.
-- reply 15
